B1: library; numbered along this chain (parent)
chain: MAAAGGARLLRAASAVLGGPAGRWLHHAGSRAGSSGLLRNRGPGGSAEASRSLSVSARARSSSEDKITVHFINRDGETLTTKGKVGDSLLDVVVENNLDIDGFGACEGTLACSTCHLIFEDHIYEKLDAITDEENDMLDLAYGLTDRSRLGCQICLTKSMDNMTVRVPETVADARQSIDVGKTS

Variants of: B1
Assay: scaled log2 fold change in cell abundance, elesclomol vs control (0 = silent mean, 1 = nonsense mean) (scaled log2 ratio); higher = higher viability under elesclomol (loss of FDX1 cuproptosis function);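 further: variant abundance is its share of total variant reads in each endpoint sample, from next-generation sequencing of the integrated ORF PCR-amplified out of genomic DNA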
Conditions: with ABC1 FDX1 KO; elesclomol 5 nM; glucose 10 mM; 14 days
Could you please report measured scaled log2 fold change for the items listed next?

Okay, here is my list. What is scaled log2 fold change for each of these?
1. D161I
2. G5K

[0.0246, 0.104]

Okay, here is my list. What is scaled log2 fold change for each of these?
1. L98K
2. R147Y
3. E134P
4. S46H
5. C106V
6. L79K
7. F103P

[0.356, 0.159, 1.22, 0.263, 1.17, 0.0188, 1.14]
